# PROTOCOL_DETAILS: counter assay for TAg ATPase ADP read-out – biochemical, ADP-Hunter, fluorescence, counter-screen (AID 2501);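 note: purified T antigen ATPase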
# DETAILS: series mostly up to 100 µM
Out of some 2,200 compounds screened, about 1,200 (55%) were called active. No cut-off is given here; in the data, nearly all actives have IC50 up to about 92 µM. The set was probably picked from earlier hits. The list shows a part of the results.
Respond using exactly one of the listed classes: active, inactive

Q. Tell me the assay call for COc1ccccc1N/C=C/C(=C(C#N)C#N)N(C)C please.
A. inactive

Q. // same read-out, input: OCCC1CN(Cc2cccn2-c2ncccn2)CCN1CCc1ccccc1 (configuration not stated)
A. inactive

Q. // same read-out, input: Cc1nnc(SCc2ccccc2)n1CC1CCCO1 (configuration not stated)
A. active

Q. // same read-out, input: COc1cc(OC)c(C2CC(=O)N3CN(c4ccccc4C)CSC3=C2C#N)cc1OC (configuration not stated)
A. inactive

Q. // same read-out, input: CC1=C(C#N)c2nc(N)c(C#N)c(C)c2/C1=C\c1ccc(-c2ccccc2C(=O)O)o1
A. inactive

Q. // same read-out, input: Cc1occc1-c1nnc(SCC(=O)c2ccccc2)n1CC1CCCO1 (configuration not stated)
A. inactive

Q. // same read-out, input: Nc1ccc(O)c(C(=O)O)c1
A. active

Q. // same read-out, input: COc1ccc(N2CSC3=C(C#N)C(c4cc(OC)ccc4OC)CC(=O)N3C2)c(OC)c1 (configuration not stated)
A. active

Q. // same read-out, input: CN(C)c1ccc(N/C=C/C(=O)c2ccccc2)cc1
A. active

Q. // same read-out, input: N#C/C(=C\c1ccc(O)c(O)c1)C(=O)N1CCc2ccccc21
A. active

Q. // same read-out, input: COc1cc(OC)c(C2CC(=O)N3CN(c4ccc(C)cc4)CSC3=C2C#N)cc1OC (configuration not stated)
A. active

Q. // same read-out, input: O=C(COC(=O)CSc1ccc([N+](=O)[O-])cc1)NCCc1ccccc1
A. inactive

Q. // same read-out, input: COc1c(O)ccc2c1CN1CCc3cc4c(cc3C1C2)OCO4 (configuration not stated)
A. inactive

Q. // same read-out, input: COc1cc(OC)c(C2CC(=O)N3CN(C)CSC3=C2C#N)cc1OC (configuration not stated)
A. active

Q. // same read-out, input: CCOc1cc(/C=N\NC(=O)CC(=O)NCCc2ccccc2)ccc1O
A. active

Q. // same read-out, input: COc1cc(/C=C2\SC(c3ccc(C)cc3)=NC2=O)cc(OC)c1O
A. active

Q. // same read-out, input: COc1cc(/C=N\NC(=O)CC(=O)NCCc2ccccc2)ccc1O
A. active

###

# PROTOCOL_DETAILS: counter assay for TAg ATPase ADP read-out – biochemical, ADP-Hunter, fluorescence, counter-screen (AID 2501);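 note: purified T antigen ATPase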
# DETAILS: series mostly up to 100 µM
Among all 2,200 compounds or so, about 1,200 (55%) were called active. The limit is not given here; nearly all actives have IC50 up to about 92 µM. So high a share suggests a set chosen from earlier hits. The list shows a part of the results.
Respond using exactly one of the listed classes: Y for active, N for inactive

Q. Tell me the assay call for CN1CCc2cccc3c2[C@@H]1Cc1ccc(O)c(O)c1-3 please.
A. N

Q. // same read-out, input: CCC1CCCCN1S(=O)(=O)c1ccc(NC(=O)c2nc(S(C)(=O)=O)ncc2Cl)cc1 (stereo not given)
A. N

Q. // same read-out, input: O=c1c2c3c(sc2n2c(=S)[nH]nc2n1-c1ccccc1)CCC3
A. Y

Q. // same read-out, input: COc1ccccc1/C=C/C=N/NC(=O)c1cc(-c2ccco2)[nH]n1
A. N

Q. // same read-out, input: COc1cccc(C(=O)Nc2ccc3c(c2)n(C)c(=O)n3C)c1
A. Y

Q. // same read-out, input: COc1cc(C2NC(=S)NC(C)=C2C(=O)Nc2cc(C)cc(C)c2)ccc1O (stereo not given)
A. N

Q. // same read-out, input: O=S(=O)(c1cccs1)N1CN(CC2CCCO2)c2nc3ccccc3nc21 (stereo not given)
A. N

Q. // same read-out, input: O=C(Cn1c(=O)n(Cc2ccco2)c(=O)c2c3c(sc21)CCCCC3)c1ccccc1
A. N

Q. // same read-out, input: Oc1ccc(/C=N/NC(=S)NCC2CCCO2)cc1 (stereo not given)
A. Y

Q. // same read-out, input: CCCc1cc(C(N)=O)c(NC(=O)c2ccoc2C)s1
A. N

Q. // same read-out, input: COc1cc(/C=N/NC(=O)CNC(=O)c2ccco2)ccc1O
A. Y

Q. // same read-out, input: CCOc1cc(/C=C2/N=C(C)C(C(=O)OC)=C2O)ccc1O
A. Y

Q. // same read-out, input: COc1ccc(-n2cc(CN3CCCC3)c(-c3cccc(F)c3)n2)cc1
A. N

Q. // same read-out, input: CCOc1cc(/C=C2\SC(=NC)N(C)C2=O)cc(Cl)c1OC(C)=O
A. N

Q. // same read-out, input: O=C1CCN(Cc2ccc(O)cc2)CCN1[C@H](CO)Cc1ccccc1
A. N

Q. // same read-out, input: COc1cc(/C=N/NC(=O)c2ccc3c(c2)OCCO3)cc(Cl)c1O
A. Y

Q. // same read-out, input: NC1=NC(=O)S/C1=C\c1ccc(O)cc1
A. Y

Q. // same read-out, input: COc1cccc(C2C(C(C)=O)=C(O)C(=O)N2CCNCCO)c1 (stereo not given)
A. N

Q. // same read-out, input: COC(=O)C1=C(O)/C(=C\c2ccc(O)c(OC)c2)N=C1C
A. Y

Q. // same read-out, input: Cc1c(/C=N/NC(=O)c2ccc(O)cc2)c2ccccn2c1C(=O)c1ccc(F)cc1
A. N

Q. // same read-out, input: CC1(C)CC(=O)C(C=Nc2ccc(O)cc2)=C(O)C1
A. Y

Q. // same read-out, input: Cn1cccc1/C=N/NC(=O)c1cccc(OC(F)(F)C(F)F)c1
A. N

Q. // same read-out, input: COc1ccc(N2C3=C(CC4=C2CCCC4=O)C(=O)CCC3)cc1
A. N

Q. // same read-out, input: CN1/C(=C\C=N\NC(=O)c2ccc(O)cc2)C(C)(C)c2ccccc21
A. Y

Q. // same read-out, input: COc1ccc2cc(-c3[nH]ncc3CN3CCCN(c4ccccc4)CC3)ccc2c1
A. N

Q. // same read-out, input: CCOC(=O)C1=C(O)/C(=C\c2ccc(O)c(OCC)c2)N=C1C
A. Y

Q. // same read-out, input: CN(C)c1ccc(NC(=O)CN2CCC(N3CCCCC3)CC2)cc1
A. Y

Q. // same read-out, input: O=c1[nH]c(=O)c2nnc(N/N=C\c3ccc(O)cc3)nc2[nH]1
A. Y

Q. // same read-out, input: Cc1ccc(CNC(=O)/C=C/c2ccc(S(=O)(=O)NCc3ccco3)cc2)cc1
A. N

Q. // same read-out, input: CC(C)NC(=O)C1CCN(C2CCN(Cc3ccc4cccc(F)c4n3)CC2)CC1
A. N

Q. // same read-out, input: COc1cc(/C=N/NC(=O)c2c(-c3ccccc3)noc2C)ccc1O
A. Y

Q. // same read-out, input: COc1ccc(/C=N/NC(=O)c2ccoc2C)cc1O
A. Y

Q. // same read-out, input: C=CCN1CCN(C(=O)c2c(-c3ccccc3)noc2C)CC1
A. N

Q. // same read-out, input: COc1cc(/C=N/NC(=O)c2ccoc2C)cc(OC)c1O
A. Y

Q. // same read-out, input: COc1ccc(-n2c(=S)[nH]c3cc(C(=O)NCc4ccco4)ccc3c2=O)c(OC)c1
A. N

###

# PROTOCOL_DETAILS: counter assay for TAg ATPase ADP read-out – biochemical, ADP-Hunter, fluorescence, counter-screen (AID 2501);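 note: purified T antigen ATPase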
# DETAILS: series mostly up to 100 µM
The campaign covered roughly 2,200 compounds. About 1,200 (55%) were called active. So high a share suggests a set chosen from earlier hits. The list shows a part of the results.
VALUE_TYPE: IC50

Q. Any idea what its IC50 is? The compound is CN(C)c1ccc(NS(=O)(=O)c2ccc(Cl)cc2)cc1
A. 5.63 µM (active)

Q. // same read-out, input: CNC(=S)N1CCN(c2ccc(OC)cc2)CC1
A. 8.87 µM (active)

Q. // same read-out, input: CC(=O)Nc1ccccc1O
A. 2.63 µM (active)

###

# PROTOCOL_DETAILS: counter assay for TAg ATPase ADP read-out – biochemical, ADP-Hunter, fluorescence, counter-screen (AID 2501);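 note: purified T antigen ATPase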
# DETAILS: series mostly up to 100 µM
Hit rate of the full screen: of about 2,200 compounds, about 1,200 (55%) were called active. The set was probably picked from earlier hits. Some of the results follow.
VALUE_TYPE: IC50

Known IC50 results, listed for orientation:
COMPOUND | VALUE_TYPE | RESULT
CCN(CC)c1ccc(NC(=O)c2cccnc2)cc1 | IC50 | 8.35 µM (active)
COc1ccc(C2CC(=O)C(C(c3ccc(O)cc3)C3C(=O)CC(c4ccc(OC)cc4)CC3=O)C(=O)C2)cc1 (centres undefined) | IC50 | inactive
Cc1cc(C)c(S(=O)(=O)Nc2ccc(O)cc2)cc1C | IC50 | 12.1 µM (active)
ClC(Cl)(c1nnnn1-c1ccccc1)c1nnnn1-c1ccccc1 | IC50 | inactive
CCn1c(Cc2ccccc2)nnc1SCC(=O)Nc1ccc(N2CCOCC2)c(Cl)c1 | IC50 | inactive

Q. Any idea what its IC50 is? The compound is CCOC(=O)c1cc(NC(=O)c2cccnc2)ccn1
A. inactive
